- measurement_target: EthR-VP16 (Mycobacterium bovis, UniProt Q7TVI1)
- Sequence (Q7TVI1 whole entry, looked up): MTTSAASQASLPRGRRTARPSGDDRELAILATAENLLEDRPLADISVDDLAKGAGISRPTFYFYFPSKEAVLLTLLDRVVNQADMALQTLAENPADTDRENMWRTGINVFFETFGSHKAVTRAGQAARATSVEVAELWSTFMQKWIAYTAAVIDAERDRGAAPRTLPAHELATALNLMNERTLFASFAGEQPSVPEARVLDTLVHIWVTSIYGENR
- measurement_protocol: cell-based
- Design: species or system M. bovis
- condition_notes: 48 h, read-out: % EthR activity (w/o = 100%); ± std. dev. of the mean (n = 3)
parameter: remaining activity at 300 µM (%)
Note: unit % is implicit; provide only the numeric part.

Ask | State, for EthR-VP16 (Mycobacterium bovis, UniProt Q7TVI1), measured remaining activity at 300 µM of the compound listed here: CCCCC(=O)N1CCN(Cc2ccccc2)CC1
Reply | 10.2

Ask | State, for EthR-VP16 (Mycobacterium bovis, UniProt Q7TVI1), measured remaining activity at 300 µM of the compound listed here: O=C(CCc1ccccc1)N1CCC1c1ccccc1 (centres unmarked)
Reply | 6.34

Ask | State, for EthR-VP16 (Mycobacterium bovis, UniProt Q7TVI1), measured remaining activity at 300 µM of the compound listed here: O=C(CCCc1ccccc1)N1CCC1c1ccccc1 (centres unmarked)
Reply | 6.18

Ask | State, for EthR-VP16 (Mycobacterium bovis, UniProt Q7TVI1), measured remaining activity at 300 µM of the compound listed here: CCCCCC(=O)N1CCN(Cc2ccccc2)CC1
Reply | 12.9

Ask | State, for EthR-VP16 (Mycobacterium bovis, UniProt Q7TVI1), measured remaining activity at 300 µM of the compound listed here: CCCCC(=O)N1CCC(c2ccccc2)C1 (centres unmarked)
Reply | 1.56

Ask | State, for EthR-VP16 (Mycobacterium bovis, UniProt Q7TVI1), measured remaining activity at 300 µM of the compound listed here: O=C(COc1ccc(F)cc1)N1CCC(c2ccccc2)C1 (centres unmarked)
Reply | 0.89

Ask | State, for EthR-VP16 (Mycobacterium bovis, UniProt Q7TVI1), measured remaining activity at 300 µM of the compound listed here: O=C(CCc1ccccc1)N1CC(Cc2ccccc2)C1
Reply | 6.03

Ask | State, for EthR-VP16 (Mycobacterium bovis, UniProt Q7TVI1), measured remaining activity at 300 µM of the compound listed here: O=C(CCc1ccccc1)N1CCC(c2ccccc2)C1 (centres unmarked)
Reply | 0.85

Ask | State, for EthR-VP16 (Mycobacterium bovis, UniProt Q7TVI1), measured remaining activity at 300 µM of the compound listed here: CCCCC(=O)N1CCOC(c2ccccc2)C1 (centres unmarked)
Reply | 14.9

Ask | State, for EthR-VP16 (Mycobacterium bovis, UniProt Q7TVI1), measured remaining activity at 300 µM of the compound listed here: CCCC(=O)N1CCC(c2ccccc2)C1 (centres unmarked)
Reply | 12

Ask | State, for EthR-VP16 (Mycobacterium bovis, UniProt Q7TVI1), measured remaining activity at 300 µM of the compound listed here: O=C(CCc1ccco1)N1CCN(Cc2ccccc2)CC1
Reply | 1.74
